Item-by-item account of AUC(0-inf)
- procedure_details: Plasma pharmacokinetics after single IV, IP or PO dose
- Assay type: in vivo, male CD-1 mice
- condition_parameters: mouse; IV 1 mg/kg, male CD-1 mice, plasma
The figure you give is taken to be in ng·h/mL; do not add the unit.

[[record]]
molecule = "C[C@]12CC[C@H](OCc3ccncc3)CC1=CCC1C2CC[C@]2(C)C(n3cnc4ccccc43)=CCC12 (some centres unmarked)"
measure = "AUC(0-inf)"
reported_result = 547


Lab note: next molecule to report on.
What value of measured AUC(0-inf) is listed for "C[C@]12CC[C@H](O)CC1=CC[C@@H]1[C@@H]2CC[C@]2(C)C(n3cnc4ccccc43)=CC[C@@H]12" ?
57.9

Hello, the source for this data is paper PMC6895912, in case you need it.
